I'd be grateful if you could share measured protein stability index for these entries.
# protocol details: protein stability index of a GFP-peptide fusion (GPS, HEK-293T) (PSI 1-6); higher = more stable;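 further: 24-mer peptide tiles fused after GFP, lentivirally expressed, FACS-sorted into six equal bins by GFP/DsRed ratio, decoded by Illumina sequencing, PSI is the read-weighted mean bin number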
# protocol conditions: treatment: DMSO; c terminus: native
Numbers only.

A selection of reference data follows.
                            residues        measured_quantity  reported_result
0     KPPPNSEGEQGPNGSQNSSYSQS [CCNC]  protein stability index             5.36
1  SIGIDNLGLKLEENLQETHSAVL [SLC35F2]  protein stability index             4.34
2    NRILAERIAKEIQVIPLQRDDED [IMPA1]  protein stability index             3.47
3     QSLLGYTPEELHAMLDVKPDADE [ETS1]  protein stability index              5.2
4     HSQRTALHLAAQKALRTISTGRI [INVS]  protein stability index             3.08
5     HSSDEDEDEDDEEDFEDDDEWED [WASL]  protein stability index             3.19
6   ENELMISYLMFLQILVYFSFMSW [FAM98B]  protein stability index             3.17
7  FRKIKDHFCPFENQFHTEIQILA [C8orf76]  protein stability index             2.69
8   KAYGWCSELIRHRRVHARKEPSH [ZNF232]  protein stability index             2.75
9    QGDSADETTAHKTEEENSDSDSD [CMTM3]  protein stability index              5.6

Below are 2 sequences. Give each one its protein stability index.
1. EILEIDDLDAIVPAVKKLKVLSY [CEP70]
2. SPSENSKEAEILEVLRHPRDWVR [CPOX]

*A*
1. 2.87
2. 4.42

*Q* I'd like to know its protein stability index. The sequence in question is GDDFELLDQSELSQLDPASSRSH [RETREG3]
*A* 4.75
